- MEASUREMENT PROTOCOL: Plasma stability, human plasma
- Format: in vitro ADME
- MEASUREMENT CONTEXT: 1 μM, 37° C.
- Description: Each test compound and assay control (final concentration of 1 μM) were incubated with human plasma or rat plasma at 37° C. for 0.5, 5, 30 and 60 minutes. The reaction was quenched with ice-cold acetonitrile containing internal standard (cetirizine/tolbutamide/telmisartan) following incubation.
Below: a set of entries, each annotated with reported half-life at 1 µM.
TEST READOUT: half-life at 1 µM (min)

>>> df
                                   molecule       test_readout  qualifier_sign  reported_result
0  C[C@H](NC(=O)OC[n+]1cccc(C(=O)NCCO[N+](=O)[O-])c1)C1CCCCC1.O=[N+]([O-])[O-] [reference compound]  half-life at 1 µM               =             31.2
1  CC(C)[N+](C)(CCOC(=O)C1c2ccccc2Oc2ccccc21)C(C)C [Propantheline Bromide]  half-life at 1 µM               =             21.3
2  CCCCCCCCCCCC(=O)OC[n+]1cccc(C(=O)NCCO[N+](=O)[O-])c1.[Cl-]  half-life at 1 µM               =             1.23
3             O=C(NCCO[N+](=O)[O-])c1cccnc1  half-life at 1 µM               >               60

Value source: patent US20250145571A1
